test: Intracellular concentration measured in HeLa cells; assay type: in vitro ADME; conditions: human, read-out: calculated free fraction
measure: fraction unbound
In your answer, state the number alone without any accompanying words.

Entry under review: COc1nnc(NC(=O)c2cnc(C)cc2-c2cc(Cl)ncc2OC)s1 . Reported fraction unbound?
0.0512

====

test: Solubility in FASSIF; assay type: physicochemical; details: FASSIF (Fasted State Simulated Intestinal Fluid)
Where a name gives a salt, the structure may show the parent alone.
For each record, write down the corresponding solubility.
Give the quantity in µg/mL, number only.

Entry under review: COc1nn(COC(=O)CCC(=O)O)/c(=N/C(=O)c2cnc(C)cc2-c2cc(Cl)ncc2OC)s1 . Reported solubility?
72

Entry under review: COc1nnc(NC(=O)c2cnc(C)cc2-c2cc(Cl)ncc2OC)s1 . Reported solubility?
13

Entry under review: COc1nn(COC(=O)CC2CCNCC2)/c(=N/C(=O)c2cnc(C)cc2-c2cc(Cl)ncc2OC)s1 [Example 3, formic acid salt] . Reported solubility?
839
